Please find below IC50 measurements for PIK3CA (human) (UniProt P42336), combined from several publications.

molecule	study-target	unit-string	censoring-operator	IC50
CC(=O)Nc1ccc(-c2cccc(Oc3cc(=O)[nH]c4ccccc34)c2)cc1	PIK3CA (human) (UniProt P42336)	nM	=	3670
Cn1cc(/C=C2\Oc3cccc(O)c3C2=O)c2c(-c3ccc(F)c(C(=O)Nc4ccccc4)c3)ccnc21	PIK3CA (human) (UniProt P42336)	nM	=	122
Nc1nc2ccc(-c3ccc4nnc(-c5cccnc5)n4c3)cc2o1	PIK3CA (human) (UniProt P42336)	nM	<	10000
COc1ncc(-c2cc(OCCN(C)C)c3ncnc(C)c3c2)cc1NS(=O)(=O)c1ccc(F)cc1F	PIK3CA (human) (UniProt P42336)	nM	=	6.1
Cn1cc(/C=C2\Oc3ccc(NC(=O)NC4CNC4)cc3C2=O)c2c(N3CC4CCC(C3)O4)ccnc21	PIK3CA (human) (UniProt P42336)	nM	=	49
Cc1ccccc1-n1c(Cn2nc(CCC(N)=O)c3c(N)ncnc32)cc2cccc(C)c2c1=O	PIK3CA (human) (UniProt P42336)	nM	>	10000
CNC(=O)C(C)Cn1cnc2ccc(-c3cnc(CO)c(NS(=O)(=O)c4ccc(F)cc4Cl)c3)cc2c1=O (single isomer, unassigned)	PIK3CA (human) (UniProt P42336)	nM	=	71.4

---

Please find below IC50 measurements for PIK3CA (human) (UniProt P42336), combined from several publications.

smiles-string	unit-string	censoring-operator	IC50
Cc1ccc(-c2cnc3c(N4CCOCC4)nc(-c4cnc(N)nc4)nc3c2)o1	nM	<	50
Nc1nc2cc(-c3ccc4nnc(-c5ccncc5)n4c3)ccc2o1	nM	<	1000
CC(C)n1ccc2c(N3CCOCC3)nc(-c3ccc(NC(=O)Nc4ccc(OCCN(C)C)cc4)cc3)nc21	nM	=	34
Nc1nc2cc(-c3ccc4ncc(NCCCN5CCOCC5)nc4c3)ccc2o1	nM	<	100
CC(C)n1ccc2c(N3CCOCC3)nc(-c3ccc(NC(=O)Nc4ccc(C(=O)NCCN(C)C)cc4)cc3)nc21	nM	=	1.7
CCN1CCN(c2ncnc3ccc(-c4cncc(NS(=O)(=O)c5ccc(F)cc5F)c4)cc23)CC1=O	nM	=	1
C[C@H](NC(=O)c1c(N)nn2ccc(-c3cccc(S(C)(=O)=O)c3)nc12)c1cc2cccc(Cl)c2c(=O)n1-c1ccccc1	nM	<	100
C=CCN(CC(C)(C)O)[C@H]1CC[C@H](CNc2nc(N3CCOCC3)cc(-n3c(C(F)F)nc4ccccc43)n2)CC1	nM	=	2700

---

Please find below IC50 measurements for PIK3CA (human) (UniProt P42336), combined from several publications.
reported-endpoint: IC50 (nM)

compound	censoring-operator	reported-result
CC(C)(N)C(=O)N1CCN(c2ccc3ncc(-c4ccc5oc(N)nc5c4)cc3n2)CC1	<	10000
CN(C)CCOc1cccc2c1C(=O)/C(=C/c1cn(C)c3nccc(-c4ccccc4)c13)O2	=	1450
COC[C@@H]1CCCN1C1CCC(CNc2nc(N3CCOCC3)cc(-n3c(C(F)F)nc4ccccc43)n2)CC1 (some centres unmarked)	=	1800
Cc1ccccc1-n1c(Cn2nc(/C=C/C(N)=O)c3c(N)ncnc32)cc2cccc(C)c2c1=O	>	10000
CC(C)[C@H](Nc1ccc2c(c1)OCCn1cc(N3C(=O)OC[C@H]3C(F)F)nc1-2)C(N)=O	=	4
Cc1ccccc1-n1c(Cn2nc(-c3ccc4nc(N)ccc4c3)c3c(N)ncnc32)cc2cccc(C)c2c1=O	<	1000
CN1CCN(C(=O)c2cnc3ccc(-c4ccc5oc(N)nc5c4)nn23)CC1	<	10000
NS(=O)(=O)c1cncc(-c2ccc3nccc(-c4cccc(OC(F)(F)F)c4)c3n2)c1	=	27
